- Experimental target: PDHK2 (Homo sapiens (Human), UniProt Q15119)
Entries and their IC50 values follow.

{"Compound": "CC1CN(C(=O)[C@@](C)(O)C(F)(F)F)Cc2cn(-c3ccccc3)nc21 (stereo partly shown) [Compound A17]", "IC50": "0.3 to 3 µM"}
{"Compound": "COc1ncc(F)c(-n2ncc3c2[C@H](C)CN(C(=O)[C@@](C)(O)C(F)(F)F)C3)n1 [Compound A36]", "IC50": "0.3 to 3 µM"}
{"Compound": "CC1CN(C(=O)[C@@](C)(O)C(F)(F)F)Cc2cnn(-c3ccccc3)c21 (stereo partly shown) [Compound A16]", "IC50": "< 0.3 µM"}
{"Compound": "C[C@@H]1CN(C(=O)[C@@](C)(O)C(F)(F)F)Cc2cn[nH]c21 [Compound A28]", "IC50": "0.3 to 3 µM"}
{"Compound": "C[C@@H]1CN(C(=O)[C@@](C)(O)C(F)(F)F)Cc2cnn(-c3ccc(Cl)cc3)c21 [Compound A10]", "IC50": "< 0.3 µM"}
{"Compound": "C[C@H]1CN(C(=O)[C@@](C)(O)C(F)(F)F)Cc2cnn(C3CCC(O)CC3)c21 (stereo partly shown) [Compound A39]", "IC50": "0.3 to 3 µM"}
{"Compound": "C[C@H]1CN(C(=O)[C@@](C)(O)C(F)(F)F)Cc2cnc(-c3ncc(F)cc3F)n21 [Compound A56]", "IC50": "3 to 50 µM"}
{"Compound": "C[C@@H]1CN(C(=O)[C@@](C)(O)C(F)(F)F)Cc2cnn(-c3ccc(F)cc3F)c21 [Compound A20]", "IC50": "< 0.3 µM"}
{"Compound": "C[C@@](O)(C(=O)N1CCc2ncn(-c3ccccc3)c2C1)C(F)(F)F [Compound A43]", "IC50": "0.3 to 3 µM"}
{"Compound": "C[C@@H]1CN(C(=O)[C@@](C)(O)C(F)(F)F)Cc2cnn(-c3ccccc3C#N)c21 [Compound A26]", "IC50": "3 to 50 µM"}
{"Compound": "C[C@H]1CN(C(=O)[C@@](C)(O)C(F)(F)F)Cc2cnn(-c3ccc(F)cc3)c21 [Compound A15]", "IC50": "0.3 to 3 µM"}
{"Compound": "C[C@H]1CN(C(=O)[C@@](C)(O)C(F)(F)F)Cc2cnn(-c3ccc(Cl)cc3)c21 [Compound A11]", "IC50": "3 to 50 µM"}
{"Compound": "C[C@@](O)(C(=O)N1CCc2c(ncn2-c2ccc(Cl)cc2)C1)C(F)(F)F [Compound A45]", "IC50": "0.3 to 3 µM"}
{"Compound": "C[C@@](O)(C(=O)N1CCn2c(cnc2-c2ccccc2)C1)C(F)(F)F [Compound A50]", "IC50": "0.3 to 3 µM"}
{"Compound": "CC1CN(C(=O)[C@@](C)(O)C(F)(F)F)Cc2cn(-c3ccc(F)cc3)nc21 (stereo partly shown) [Compound A13]", "IC50": "0.3 to 3 µM"}
{"Compound": "C[C@@](O)(C(=O)N1CCc2nn(-c3ccc(F)cc3F)cc2C1)C(F)(F)F [Compound A6]", "IC50": "0.3 to 3 µM"}
